system_under_test: p-Akt2 in WM115 cells (Homo sapiens)
Construct: SureFire assays to detect cellular p-Akt1, p-Akt2 and p-Akt3 levels in WM115 cells (Akt2/3) and LNCaP cells (Akt1); endogenous in cells; host or cells: WM115 (ECACC 91061232), insulin-stimulated
Sequence (P31751 whole entry): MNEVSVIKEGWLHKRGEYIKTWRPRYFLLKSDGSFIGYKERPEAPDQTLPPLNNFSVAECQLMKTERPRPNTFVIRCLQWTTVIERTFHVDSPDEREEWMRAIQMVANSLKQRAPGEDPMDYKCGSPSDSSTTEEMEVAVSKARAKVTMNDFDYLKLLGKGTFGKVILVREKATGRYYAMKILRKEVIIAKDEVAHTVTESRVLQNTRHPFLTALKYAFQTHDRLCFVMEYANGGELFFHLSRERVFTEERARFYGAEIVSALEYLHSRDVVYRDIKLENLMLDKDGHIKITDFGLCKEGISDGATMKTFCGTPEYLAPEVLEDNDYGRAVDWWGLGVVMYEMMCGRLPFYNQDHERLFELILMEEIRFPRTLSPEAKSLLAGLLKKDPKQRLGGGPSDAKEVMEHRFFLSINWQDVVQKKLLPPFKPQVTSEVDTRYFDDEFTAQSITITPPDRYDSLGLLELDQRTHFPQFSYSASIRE
assay_overview: Phospho-Akt cellular SureFire assay, p-Akt2 in WM115 cells
Assay type: cell-based
setup_conditions: insulin stimulated, read-out: Biological Assay 2 IC50 (nM) Akt2 WM115
Description: Biological Assay 2: Phospho-Akt (p-Akt) Cellular SureFire Assays The following describes SureFire assays to detect cellular p-Akt1, p-Akt2 and p-Akt3 levels in WM115 cells (Akt2/3) and LNCaP cells (Akt1). […] 2 μL dilution buffer, supplemented with a 1/20 dilution of donor beads was added to each well and incubated for a further 2 h. Plates were read with the EnVision® Multilabel Plate Reader and using the AlphaScreen settings. Compound IC50 was determined using a 4-parameter equation.
measurement_kind: IC50 (nM)

As a guide, the following entries are already answered.
| compound_structure | unit_of_measurement | IC50 |
| --- | --- | --- |
| CCC(=O)N(C)[C@H]1CC[C@H](CC(=O)Nc2cc(-c3ccccc3)c(-c3ccc([C@]4(N)C[C@](C)(O)C4)cc3)nn2)CC1 | nM | 250 |
| CC(=O)N[C@H]1CC[C@H](CC(=O)Nc2cnc(-c3ccc([C@H](N)C(F)F)cc3)c(-c3ccccc3)c2)CC1 | nM | 24000 |
| CN(C(=O)C1CC1)[C@H]1CC[C@H](CC(=O)Nc2cc(-c3ccccc3)c(-c3ccc([C@]4(N)C[C@](C)(O)C4)cc3)nn2)CC1 | nM | 370 |

a. CCCC(=O)N[C@H]1CC[C@H](CC(=O)Nc2cnc(-c3ccc(C4(N)CC4)cc3)c(-c3ccccc3)c2)CC1
b. CC(C)(N)c1ccc(-c2nnc(NC(=O)C[C@H]3CC[C@H](N4CCOC4=O)CC3)cc2-c2ccsc2)cc1
In: From the items above, decide which of a and b has the lower IC50 reading. # answer = label of selected item
Out: a
